OD 450 nm listing for selected binders.
- subject-of-test: T1, CEACAM1 antigen (Sino Biological, Inc.) (UniProt P13688 35-428)
- T1 construct: Bought antigen coated on the ELISA plate; construct not described; also called CEACAM1 (CD66a) antigen; CD66a
- T1 sequence (looked up): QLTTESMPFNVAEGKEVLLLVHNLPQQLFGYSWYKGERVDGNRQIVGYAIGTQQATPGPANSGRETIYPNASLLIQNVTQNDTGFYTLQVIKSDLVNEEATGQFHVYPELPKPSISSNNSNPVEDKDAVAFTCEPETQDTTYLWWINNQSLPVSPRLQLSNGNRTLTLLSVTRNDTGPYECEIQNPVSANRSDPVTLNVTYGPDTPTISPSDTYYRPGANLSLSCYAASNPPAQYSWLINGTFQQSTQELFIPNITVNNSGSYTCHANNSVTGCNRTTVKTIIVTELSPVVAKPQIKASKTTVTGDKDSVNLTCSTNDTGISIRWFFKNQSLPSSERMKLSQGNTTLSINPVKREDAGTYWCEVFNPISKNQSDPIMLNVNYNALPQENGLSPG
- test-name: ELISA, coated CEACAM1 100 ng/well, antibody 4.57 ng/ml
- Protocol: Antigen CD66c (CEACAM6; Sino Biological, Inc.) and CEACAM1 antigen (Sino Biological, Inc.) were coated on a 96-well plate at 100 ng per well and then blocked. […] The washing was carried out at three times between each step, and the TMB reaction was performed, stopped with 1N H₂SO₄ solution at the same amount of TMB solution (100 ul) and then OD value was measured at 450 nm. […]
recorded-endpoint: OD 450 nm

binder="recombinant humanized anti-CD66c antibody Protein ID 3007 (Vk7 + VH6) (antibody, human IgG1, V domains shown, also called hu 3007; #43) VH: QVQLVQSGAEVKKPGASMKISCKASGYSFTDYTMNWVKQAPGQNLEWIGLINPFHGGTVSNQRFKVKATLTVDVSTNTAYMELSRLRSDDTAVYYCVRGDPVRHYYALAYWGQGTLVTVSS VL: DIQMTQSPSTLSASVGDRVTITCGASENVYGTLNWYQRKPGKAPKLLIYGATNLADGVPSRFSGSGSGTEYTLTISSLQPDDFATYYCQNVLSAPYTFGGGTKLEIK" recorded_endpoint="OD 450 nm" test_value="0.27 OD"
binder="anti-CD66c chimeric antibody 8F5 (antibody, human IgG1, V domains shown, also called chimeric 8F5 antibody; chi 8F5) VH: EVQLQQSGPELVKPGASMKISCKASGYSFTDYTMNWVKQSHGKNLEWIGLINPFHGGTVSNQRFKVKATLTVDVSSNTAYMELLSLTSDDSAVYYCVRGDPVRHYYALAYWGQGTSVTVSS VL: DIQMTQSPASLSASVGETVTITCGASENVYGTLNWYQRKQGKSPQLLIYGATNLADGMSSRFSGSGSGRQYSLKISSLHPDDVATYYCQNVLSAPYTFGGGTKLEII" recorded_endpoint="OD 450 nm" test_value="0.28 OD"
binder="recombinant humanized anti-CD66c antibody Protein ID 2938 (Vk5 + VH7) (antibody, human IgG1, V domains shown, also called hu 2938) VH: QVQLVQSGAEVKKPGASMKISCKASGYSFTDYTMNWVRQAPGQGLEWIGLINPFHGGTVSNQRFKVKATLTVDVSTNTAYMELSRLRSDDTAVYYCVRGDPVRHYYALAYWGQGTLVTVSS VL: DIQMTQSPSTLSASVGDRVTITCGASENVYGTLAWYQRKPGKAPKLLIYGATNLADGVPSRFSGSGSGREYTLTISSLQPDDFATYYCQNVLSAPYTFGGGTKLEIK" recorded_endpoint="OD 450 nm" test_value="0.05 OD"
binder="recombinant humanized anti-CD66c antibody Protein ID 3058 (Vk8 + VH11) (antibody, human IgG1, V domains shown, also called hu 3058; #86) VH: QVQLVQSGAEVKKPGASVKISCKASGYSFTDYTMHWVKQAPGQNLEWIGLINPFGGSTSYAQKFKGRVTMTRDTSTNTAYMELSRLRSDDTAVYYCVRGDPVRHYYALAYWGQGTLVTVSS VL: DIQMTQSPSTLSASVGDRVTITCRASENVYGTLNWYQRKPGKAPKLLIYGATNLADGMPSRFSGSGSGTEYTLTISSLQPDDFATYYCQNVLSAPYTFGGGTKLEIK" recorded_endpoint="OD 450 nm" test_value="0.05 OD"
binder="recombinant humanized anti-CD66c antibody Protein ID 3043 (Vk8 + VH6) (antibody, human IgG1, V domains shown, also called hu 3043; #71) VH: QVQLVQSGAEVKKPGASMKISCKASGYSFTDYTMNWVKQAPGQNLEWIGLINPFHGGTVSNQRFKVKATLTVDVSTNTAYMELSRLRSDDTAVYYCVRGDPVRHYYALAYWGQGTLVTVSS VL: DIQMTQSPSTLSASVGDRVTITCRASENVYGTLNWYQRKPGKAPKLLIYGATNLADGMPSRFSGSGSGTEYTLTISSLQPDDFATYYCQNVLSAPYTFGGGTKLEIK" recorded_endpoint="OD 450 nm" test_value="0.27 OD"
